Hello, the source for this data is the METLIN SMRT retention time set (Domingo-Almenara et al. 2019), in case you need it.

Attribute: RP-LC retention time
assayComment: gradient 5% acetonitrile 3 min, to 50% in 2 min, to 85% in 15 min, held 3 min, 100 µL/min
testSettings: column: Zorbax Extend-C18 2.1 x 50 mm; eluents: water / acetonitrile, 0.1% formic acid

# compound, RP-LC retention time / s
records = [
    ("Cc1ccc(NC(=O)N2CCCC(C)(C(=O)NCc3ccc(F)cc3)C2)c(Cl)c1 (centres undefined)", 1010),
    ("CN(C)C(=O)c1csc(S(=O)(=O)N2CCC(C(=O)N3CCc4ccccc43)CC2)c1", 809),
    ("COc1ccc(NS(=O)(=O)c2cc3n(c2)CCN(C(C)C)C3=O)cc1Cl", 775),
    ("O=C(CCC1CCCN(S(=O)(=O)c2ccccc2F)C1)NC1CCCCC1 (centres undefined)", 952),
    ("CCN1CCN(C(=O)C2Cc3cc(S(=O)(=O)N4CCOCC4)ccc3N2C(C)=O)CC1 (centres undefined)", 578),
    ("COc1cc(NC(=O)c2cn(-c3cc(N4CCCC4)ncn3)cn2)cc(OC)c1", 860),
    ("Cn1cnc(S(=O)(=O)N2c3ccccc3CC2c2nnc(C3CCOCC3)o2)c1 (centres undefined)", 680),
    ("O=C(Cn1nc2c(N3CCSCC3)nccn2c1=O)NCCc1ccc(Cl)cc1", 850),
    ("Cc1ccc(CNC(=O)C2CCCN(c3nc4c(s3)c(C)nn4-c3ccc(C)cc3)C2)cc1 (centres undefined)", 1210),
    ("CCc1csc(-c2cn(CC(=O)NCc3cccc(C(F)(F)F)c3)cn2)n1", 768),
    ("O=C(C1CCN(S(=O)(=O)c2ccc(-c3noc(C4CC4)n3)cc2)CC1)N1CCCC1", 859),
    ("O=C(Cn1c(=O)c2cc(-c3cccs3)nn2c2ncccc21)Nc1ccc(Cl)cc1", 932),
    ("CCN(CC)C(=O)C1c2cc(OC)c(OC)cc2C(=O)N(C)C1c1ccc(OC)c(OC)c1 (centres undefined)", 706),
    ("N#Cc1cccc(NC(=O)COc2ccc(-c3nnc4n3CCCC4)cc2)c1", 653),
    ("O=C(NCCC1=CCCCC1)C1CCN(Cc2cc3ccccc3n2Cc2ccccc2)CC1", 880),
    ("Cn1nc(-c2ccc(F)cc2)cc1C(=O)NCc1n[nH]c(=O)c2ccccc12", 694),
    ("O=S(=O)(Nc1ccc(Cn2cncn2)cc1)c1ccccc1F", 688),
    ("CCn1cc(-c2nc(C)c(C(=O)Nc3cccc(OC)c3)s2)c2cccnc21", 983),
    ("CCOC(=O)c1cccc(Nc2c(-c3ccc(Cl)cc3)nc3cnccn23)c1", 992),
]

====

Overview of recorded RP-LC retention time for various compounds
assayComment: gradient 5% acetonitrile 3 min, to 50% in 2 min, to 85% in 15 min, held 3 min, 100 µL/min
testSettings: column: Zorbax Extend-C18 2.1 x 50 mm; eluents: water / acetonitrile, 0.1% formic acid

# compound, unitAbbreviation, RP-LC retention time
data = [
    ("Cc1ccc(Sc2nccnc2N2CCC(C(=O)N3CCN(c4cccc(C)c4)CC3)CC2)cc1", "s", 1310),
    ("Cc1ccc(C)c(CNC(=O)CCc2conc2-c2ccc(F)cc2)c1", "s", 1010),
    ("CCc1nnc2cc(N3CCN(C(=O)c4ccc(C(C)C)cc4)CC3)cnn12", "s", 731),
    ("CC1CCN(c2cc(-n3cnc(C(=O)N4CCN(c5ccccn5)CC4)c3)ncn2)CC1", "s", 675),
    ("O=C(NC1CC1)C1CCN(S(=O)(=O)c2ccc(-c3noc(C4CC4)n3)cc2)CC1", "s", 803),
    ("O=C(Nc1nc(-c2ccccc2)cs1)c1c(-c2ccc(F)cc2)nc2n1CCS2(=O)=O", "s", 1020),
    ("CS(=O)(=O)N1C[C@H]2CCN(Cc3cccc(F)c3F)C[C@H]21", "s", 575),
    ("O=C(c1ccc(-c2ccc(N3CCCCC3)nc2)cc1)N1CCOCC1", "s", 607),
    ("Cc1cc(NC(=O)C(=O)c2cccn2C)ccc1Br", "s", 1120),
    ("CCNC(=O)C1CCN(C(=O)Nc2ccc(NC(=O)Nc3ccccc3F)cc2)CC1", "s", 686),
    ("O=C(Nc1ccc(Br)c(F)c1)c1cnc(-c2ccccc2)nc1-c1ccncc1", "s", 1030),
    ("O=C(Cn1cccc1-c1nnc(-c2ccccc2)o1)NCc1ccc2c(c1)OCO2", "s", 860),
    ("CCN1CCN(C2CCN(C(=O)c3ccco3)CC2)C1=O", "s", 627),
    ("O=C(NCc1ccc(Cl)cc1)C1CCN(S(=O)(=O)c2cc(C(=O)N3CCCC3)cs2)CC1", "s", 916),
    ("Cc1cccc(-c2nc(Cn3nnc(-c4nc(-c5ccc(Cl)cc5)no4)c3C)c(C)o2)c1", "s", 1320),
    ("CCN(C(=O)C(=O)c1c[nH]c2ccccc12)c1cccc(Cl)c1", "s", 882),
    ("O=C(NC1CCCCC1)C1CCCN(c2ncc(-c3ccccc3)cn2)C1 (stereo not drawn)", "s", 1070),
    ("O=C1CS(=O)C2(CCNCC2)N1Cc1cccc(F)c1 (stereo not drawn)", "s", 566),
    ("CC(C)c1ccc(CNC(=O)CN2CCN(Cc3ccc(F)cc3)C2=O)cc1", "s", 933),
    ("COc1ccc(-c2noc(-c3nc(-c4cccnc4)no3)n2)cc1OC", "s", 893),
    ("Cc1noc(C2CN(C(=O)Nc3cccc(Cl)c3C)CC23CCOCC3)n1 (stereo not drawn)", "s", 792),
    ("Cc1cc(C)nc(N2CCN(c3cc(C)nc4c(-c5ccc(F)cc5)cnn34)CC2)n1", "s", 1190),
    ("Cc1cc(C)n(-c2ccc(C(=O)NCc3cc(F)cc(F)c3)cn2)n1", "s", 943),
    ("CCn1cc(C(=O)Nc2ccc(Br)cc2)c2nn(-c3ccccc3)c(=O)c-2c1", "s", 1090),
    ("COc1ccc(N2CCN(c3nc(C(=O)NCCN4CCCCC4)cs3)CC2)cc1", "s", 642),
    ("CCc1ccccc1NC(=O)NCCNC(=O)c1ccc(NC(=O)C2CC2)cc1", "s", 657),
    ("CCC1CN2C=Nc3oc(C)c(C(=O)NCCc4ccccc4)c3C2=N1 (stereo not drawn)", "s", 666),
    ("O=C(O)c1cc(-c2ccccc2)nc2ccccc12", "s", 849),
    ("CCOc1ccc(-c2nc3ncccn3c2NCc2ccc(C)cc2)cc1OC", "s", 773),
    ("CCCCCC[C@H]1C(=O)O[C@H](C)[C@H](NC(=O)c2cccc(NC=O)c2O)C(=O)O[C@@H](C)[C@@H]1OC(=O)CC(C)C", "s", 1100),
    ("Cc1c(Cl)ccc2c(=O)c3c([nH]c12)CCN(CC(=O)Nc1ccc2c(c1)OCCO2)C3", "s", 646),
    ("CCCN(Cc1ccsc1)C(=O)c1ccc(OC)c(OC)c1OC", "s", 880),
    ("CCOC(=O)c1c(C)[nH]c(C(=O)N2CCCC(C(=O)NCCN3CCOCC3)C2)c1C (stereo not drawn)", "s", 593),
    ("CC1CCN(C(=O)c2cn(-c3cc(-c4nc(C(C)(C)C)no4)ccn3)cn2)CC1", "s", 1060),
    ("Cc1ccccc1OCc1nc(CCN(C)C(=O)c2ccc(Br)o2)no1", "s", 951),
    ("O=C(Nc1ccc(F)cc1F)c1ncccn1", "s", 661),
    ("COC(=O)c1ccc2c(c1)nnn2Cc1cccc(OC)c1", "s", 880),
    ("CC(C)n1c(-c2cccc(C(=O)NCc3ccncc3)c2)nc2cccnc21", "s", 599),
]

====

Quick reference: RP-LC retention time of the listed items.
assayComment: gradient 5% acetonitrile 3 min, to 50% in 2 min, to 85% in 15 min, held 3 min, 100 µL/min
testSettings: column: Zorbax Extend-C18 2.1 x 50 mm; eluents: water / acetonitrile, 0.1% formic acid

# compound, RP-LC retention time [s]
rows = [
    ("CCOC(=O)c1c(C)c(C(=O)CN(CC2CCCO2)C(=O)c2cccc(F)c2)c(C)n1C (centres undefined)", 920),
    ("O=C(Nc1ccc2ncnc(N3CCCCC3)c2c1)c1cccs1", 670),
    ("CS(=O)(=O)N1CCCC1C(=O)Nc1nc(-c2cc(Cl)sc2Cl)cs1 (centres undefined)", 993),
    ("O=C([C@@H]1C[C@H](F)CN1S(=O)(=O)c1ccc(Br)s1)N1CCCCC1", 839),
    ("Cc1ccc(CC(=O)Nc2ccc3nc(N4CCN(CC(=O)N(C)C)CC4)cc(C(=O)O)c3c2)cc1", 604),
    ("Cc1nnc2c(=O)n(CC(=O)N3CCCCC3)c3cccnc3n12", 616),
    ("Cc1nc2cccnc2n1CCN1CCN(C(=O)Nc2ccc(F)c(Cl)c2)CC1", 618),
    ("O=C(Cn1c(=O)cc(-c2nc(C3CC3)no2)c2ccccc21)NCCC1=CCCCC1", 1110),
    ("CCOC(=O)c1[nH]c(C)c(CCC(=O)N2CCC(C(=O)NCCOC)CC2)c1C", 628),
    ("CN1CCCN(C(c2ccccc2)c2ccc(Cl)cc2)CC1 (centres undefined)", 796),
    ("O=C(NCC1CC1)c1cn(C2CN(C(=O)CCc3c[nH]c4ccccc34)C2)nn1", 712),
    ("CCOC(=O)c1csc(NC(=O)c2sc3ccccc3c2Cl)n1", 999),
    ("COc1ccc(NC(=O)C2CCN(S(=O)(=O)c3cc(-c4noc(C)n4)cs3)CC2)cc1Cl", 946),
    ("O=C(CN1CCC(c2nc(-c3cccs3)no2)CC1)N1CCN(c2ccccc2)CC1", 702),
    ("O=c1ccn(-c2ccc(F)c(F)c2)nc1-c1nc(-c2cccc(F)c2)no1", 923),
    ("COc1ccccc1-c1noc(C2CCCN2C(=O)c2cccc(F)c2)n1 (centres undefined)", 856),
    ("Cc1cc(S(=O)(=O)N2CCC3(CC2)NCCCN=C3NC2CCCC2)ccc1F", 768),
    ("CCOC(=O)c1c(C)oc2nc(C)nc(N3CCC(c4ccccc4)C3)c12 (centres undefined)", 1130),
    ("O=C(Cn1nc(N2CCOCC2)c2ccccc2c1=O)Nc1ccc(Br)cc1", 864),
]
